Target: biotinylated human DLL3 protein expressed as a human IgG1 fusion protein (human) (UniProt Q9NYJ7)
Sequence (Q9NYJ7 other isoform, or with tags, fused parts or gaps): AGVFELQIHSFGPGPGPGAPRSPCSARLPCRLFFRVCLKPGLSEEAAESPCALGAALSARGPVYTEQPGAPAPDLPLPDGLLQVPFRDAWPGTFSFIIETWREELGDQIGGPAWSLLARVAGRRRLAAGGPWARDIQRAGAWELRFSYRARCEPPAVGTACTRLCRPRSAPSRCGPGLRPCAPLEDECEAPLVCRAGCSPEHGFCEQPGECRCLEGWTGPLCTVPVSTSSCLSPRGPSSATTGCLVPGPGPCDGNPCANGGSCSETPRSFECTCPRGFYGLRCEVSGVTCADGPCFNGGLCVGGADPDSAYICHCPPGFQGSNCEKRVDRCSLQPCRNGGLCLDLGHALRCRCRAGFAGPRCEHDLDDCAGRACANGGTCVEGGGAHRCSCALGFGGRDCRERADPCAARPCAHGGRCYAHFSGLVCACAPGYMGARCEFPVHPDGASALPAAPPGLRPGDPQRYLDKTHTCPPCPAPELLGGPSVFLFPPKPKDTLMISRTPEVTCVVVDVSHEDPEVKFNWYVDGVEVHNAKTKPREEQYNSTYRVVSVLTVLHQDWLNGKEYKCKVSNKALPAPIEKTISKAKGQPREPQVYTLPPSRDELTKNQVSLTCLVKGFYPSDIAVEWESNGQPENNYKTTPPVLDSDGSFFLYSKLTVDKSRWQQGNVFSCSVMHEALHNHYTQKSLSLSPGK
Test: Octet BLI; biotinylated huDLL3-IgG1 fusion on streptavidin tips; single 50 nM; conditioned medium
Could you please report measured Kd for the items listed next?

Would you kindly share the measured Kd for anti-DLL3 trispecific protein 2H04 (protein, part only; not given: anti-CD3 fragment and anti-albumin domain, part only) chain, part: EVQLVESGGGLVQPGGSLTLSCVASGSTSSINAMGWYRRAPGKQRELVAGISSDTSKVYADSVKGRFTISRDNAKNSVYLQMNSLRAEDTAVYYCYYFRTVSGSYMRYWGQGTLVTVSSGGGGSGGGSGGGGSGGGSHHHHHH ?
6.3 nM

Would you kindly share the measured Kd for anti-DLL3 trispecific protein 1C010 (protein, part only; not given: CD3 binder and albumin binder, part only) chain, part: EVQLVESGGGLVQPGGSLTLSCVASGSTSRINAMGWYRRAPGKQRELVAGVSSDGSKVYADSVKGRFTISRDNAKNSVYLQMNSLRAEDTAVYYCYYFRTVSGSSMSYWGQGTLVTVSSGGGGSGGGSGGGGSGGGSHHHHHH ?
2.5 nM

Would you kindly share the measured Kd for anti-DLL3 trispecific protein 2A04 (protein, part only; not given: anti-CD3 fragment and anti-albumin domain, part only) chain, part: EVQLVESGGGLVQPGGSLTLSCVASGSTSSINAMAWYRRAPGKQRELVAGISSDGSKVYTDSVKGRFTISRDNAKNSVYLQMNSLRAEDTAVYYCYYFRTTSGSSMRYWGQGTLVTVSSGGGGSGGGSGGGGSGGGSHHHHHH ?
5.6 nM

Would you kindly share the measured Kd for anti-DLL3 trispecific protein 3A09 (protein, part only; not given: CD3 binder and albumin binder, part only) chain, part: EVQLVESGGGLVQPGGSLTLSCAASGSSVSFLSMAWYRQAPGKKRELVAGISADGSVDYIDSVKGRFTISRDNAKNSVYLQMNSLRAEDTAVYYCYAYRWTTRYIYWGQGTLVTVSSGGGGSGGGSGGGGSGGGSHHHHHH ?
6.3 nM

Would you kindly share the measured Kd for anti-DLL3 trispecific protein 1B03 (protein, part only; not given: anti-CD3 and anti-albumin domains, part only) chain, part: EVQLVESGGGLVQPGGSLTLSCVASGKTSSINAMAWYRRAPGKQRELVAGISSDGSKVYTDSVKGRFTISRDNAKNSVYLQMNSLRAEDTAVYYCYYFRTVSGSSARYWGQGTLVTVSSGGGGSGGGSGGGGSGGGSHHHHHH ?
8.7 nM

Would you kindly share the measured Kd for anti-DLL3 trispecific protein 3A011 (protein, part only; not given: CD3 binder and albumin binder, part only) chain, part: EVQLVESGGGLVQPGGSLTLSCAASGSSVSFLSLAWYRQAPGKKRELVAGISTDGSTDYIDSVKGRFTISRDNAKNSVYLQMNSLRAEDTAVYYCYAYRWRTRYTYWGQGTLVTVSSGGGGSGGGSGGGGSGGGSHHHHHH ?
6.8 nM

Would you kindly share the measured Kd for anti-DLL3 trispecific protein 3B07 (protein, part only; not given: anti-CD3 fragment and anti-albumin sdAb, part only) chain, part: EVQLVESGGGLVQPGGSLTLSCAASGSRVSFLSMAWYRQAPGKKRELVAGISADGSTTYIDSVKGRFTISRDNAKNSVYLQMNSLRAEDTAVYYCYAYRWTTRYTYWGQGTLVTVSSGGGGSGGGSGGGGSGGGSHHHHHH ?
7.3 nM

Would you kindly share the measured Kd for anti-DLL3 trispecific protein 2C09 (protein, part only; not given: anti-CD3 and anti-albumin domains, part only) chain, part: EVQLVESGGGLVQPGGSLTLSCVPSGSTSNINAMGWYRRAPGKQRELPAGISSDGTKIYADSAKVPFTITRDNAKNSVYLQMNSLRAEDTAVYYCYYFRTVSGTSMRYWGQGTLVTVSSGGGGSGGGSGGGGSGGGSHHHHHH ?
6.4 nM

Would you kindly share the measured Kd for anti-DLL3 trispecific protein 4F09 (protein, part only; not given: anti-CD3 and anti-albumin domains, part only) chain, part: EVQLVESGGGLVQPGGSLTLSCAASGSRVSFLSMAWYRQAPGKKRELVAGISADGSTDYIESVKGRFTISRDNAKNSVYLQMNSLRAEDTAVYYCYAYRWTTRYTYWGQGTLVTVSSGGGGSGGGSGGGGSGGGSHHHHHH ?
8.8 nM

Would you kindly share the measured Kd for anti-DLL3 trispecific protein 2G03 (protein, part only; not given: CD3 binder and albumin binder, part only) chain, part: EVQLVESGGGLVQPGGSLTLSCVASGSTSSINAMGWYRRAPGKQRELVAGISSDGSLVYADSVKGRFTISRDNAKNSVYLQMNSLRAEDTAVYYCYYFRTVSGSSMRAWGQGTLVTVSSGGGGSGGGSGGGGSGGGSHHHHHH ?
5.6 nM

Would you kindly share the measured Kd for anti-DLL3 trispecific protein 1F02 (protein, part only; not given: CD3 binder and albumin binder, part only) chain, part: EVQLVESGGGLVQPGGSLTLSCVASGSTSSINAMAWYRRAPGKQRELAAGISSDQSKVYADSAKGRFTISRDNAKNSVYLQMNSLRAEDTAVYYCYYFRTVSGSSMSYWGQGTLVTVSSGGGGSGGGSGGGGSGGGSHHHHHH ?
4 nM

Would you kindly share the measured Kd for anti-DLL3 trispecific protein 1F012 (protein, part only; not given: anti-CD3 fragment and anti-albumin sdAb, part only) chain, part: EVQLVESGGGLVQPGGSLTLSCVASGLTSSINAMGWYRRAPGKQRELVAGISSDGSKVYQDSVKGRFTISRDNAKNSVYLQMNSLRAEDTAVYYCYYFRTNSGSSMRYWGQGTLVTVSSGGGGSGGGSGGGGSGGGSHHHHHH ?
5.8 nM

Would you kindly share the measured Kd for anti-DLL3 trispecific protein 3H010 (protein, part only; not given: anti-CD3 and anti-albumin domains, part only) chain, part: EVQLVESGGGLVQPGGSLTLSCAASGSSVSFLSMAWYRQAPGKKRELVAGISADGSTAYIDSVKGRFTISRDNAKNSVYLQMNSLRAEDTAVYYCYAYRWTTRRTYWGQGTLVTVSSGGGGSGGGSGGGGSGGGSHHHHHH ?
8.6 nM

Would you kindly share the measured Kd for anti-DLL3 trispecific protein 3A02 (protein, part only; not given: CD3 fragment and albumin sdAb, part only) chain, part: EVQLVESGGGLVQPGGSLTLSCAASGSSVSFLSLAWYRQAPGKKRELVAGISADGSTAYIDSVKGRFTISRDNAKNSVYLQMNSLRAEDTAVYYCYAYRWRTRYTYWGQGTLVTVSSGGGGSGGGSGGGGSGGGSHHHHHH ?
8.1 nM
